Cited source for all entries: paper PMC12171319

experimentNotes: in vitro
experimentalContext: human, Caco-2, pH 7.4, Recovery B-A in presence of Verapamil, Mean
propertyLabel: recovery at 90 min, 10 µM

Any idea what recovery at 90 min, 10 µM was measured for CC1CN(c2ccc(NC(=O)C34COCC(c5ccc(OC(F)(F)F)cc5)(C3)C4)cn2)CC(C)O1 (stereo not shown) ?
77%

###

experimentNotes: in vitro
experimentalContext: human, Caco-2, pH 7.4, Papp (AB), replicate 1, 10 µM, 90 min, no verapamil
propertyLabel: Papp A→B at 90 min, 10 µM (×10⁻⁶ cm/s)
Number only, in ×10⁻⁶ cm/s; omit the unit.

Any idea what Papp A→B at 90 min, 10 µM was measured for "Cc1c(C(=O)Nc2ccc(N3C[C@@H](C)O[C@@H](C)C3)nc2)cccc1-c1ccc(OC(F)(F)F)cc1" ?
2.9
